# METHOD: Multiple-ascending dose
# Assay type: in vivo, human
# ASSAY_CONDITIONS: both, human, plasma, oral, 100 mg, Tmax, Day 1, 100 mg b.i.d.; median (range)
MEASUREMENT_LABEL: Tmax (min)
# number only, unit min dropped from output

# Tmax lookup, item `CCCCCN1C[C@H](O)[C@@H](O)[C@H](O)[C@@H]1CO`
54

----------
# METHOD: Multiple-ascending dose
# Assay type: in vivo, human
# ASSAY_CONDITIONS: both, human, urine and plasma, oral, 30 mg
MEASUREMENT_LABEL: CL renal

# CL renal lookup, item CCCCCN1C[C@H](O)[C@@H](O)[C@H](O)[C@@H]1CO [sinbaglustat]
211 mL/min

----------
# METHOD: Multiple-ascending dose
# Type: in vivo, human
# ASSAY_CONDITIONS: both, human, plasma, oral, 1000 mg b.i.d., Cmax, Day 1, 1,000 mg b.i.d.; geometric mean (95% CI)
MEASUREMENT_LABEL: Cmax (ng/mL)
# number only, unit ng/mL dropped from output

# Cmax lookup, item CCCCCN1C[C@H](O)[C@@H](O)[C@H](O)[C@@H]1CO [sinbaglustat]
10600

----------
# METHOD: Multiple-ascending dose
# Format: in vivo, human
# ASSAY_CONDITIONS: both, human, plasma, oral, 1000 mg b.i.d.
MEASUREMENT_LABEL: AUC(0-t) (ng·h/mL)
# number only, unit ng·h/mL dropped from output

# AUC(0-t) lookup, item `CCCCCN1C[C@H](O)[C@@H](O)[C@H](O)[C@@H]1CO`
51200

----------
# METHOD: Single-ascending dose
# Format: in vivo, human
# ASSAY_CONDITIONS: human, plasma, oral, 1000 mg
MEASUREMENT_LABEL: half-life

# half-life lookup, item `CCCCCN1C[C@H](O)[C@@H](O)[C@H](O)[C@@H]1CO`
11.6 h

----------
# METHOD: Multiple-ascending dose
# Type: in vivo, human
# ASSAY_CONDITIONS: both, human, plasma, oral, 30 mg, Tmax, Day 1, 30 mg b.i.d.; median (range)
MEASUREMENT_LABEL: Tmax

# Tmax lookup, item `CCCCCN1C[C@H](O)[C@@H](O)[C@H](O)[C@@H]1CO`
54 min

----------
# METHOD: Multiple-ascending dose
# Format: in vivo, human
# ASSAY_CONDITIONS: both, human, plasma, oral, 300 mg
MEASUREMENT_LABEL: AUC
Kindly report the value followed by its unit.

# AUC lookup, item `CCCCCN1C[C@H](O)[C@@H](O)[C@H](O)[C@@H]1CO`
16800 ng·h/mL
